// IC50 lookup, one value per entry
# testTarget: T1, E. coli β clamp (β subunit of DNA polymerase III, dnaN gene product) (E. coli, UniProt P0A988 1-366)
# T1 construct: Homodimeric ring; N-tagged protein expressed in BL21 E. coli and purified on Ni-NTA and MonoQ; also called β ring; β protein; not shown: N-terminal tag from the pET15b plasmid
# T1 sequence (P0A988 whole entry): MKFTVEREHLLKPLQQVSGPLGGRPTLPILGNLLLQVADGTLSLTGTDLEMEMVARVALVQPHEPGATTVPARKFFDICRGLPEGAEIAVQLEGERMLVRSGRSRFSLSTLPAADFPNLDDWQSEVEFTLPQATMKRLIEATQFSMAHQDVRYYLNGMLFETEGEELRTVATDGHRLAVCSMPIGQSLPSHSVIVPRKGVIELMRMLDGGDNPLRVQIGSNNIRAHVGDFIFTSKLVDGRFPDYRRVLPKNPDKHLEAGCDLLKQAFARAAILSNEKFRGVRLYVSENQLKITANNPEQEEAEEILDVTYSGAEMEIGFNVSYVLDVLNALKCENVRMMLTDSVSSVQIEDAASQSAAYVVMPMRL
# testProtocol: SPR competition: peptide with β ring injected on immobilized P1
Square brackets hold non-standard residues; d marks the D form. Phe(3,4-Cl2) = N[C@@H](Cc1ccc(Cl)c(Cl)c1)C(=O)O; Phe(4-Br) = N[C@@H](Cc1ccc(Br)cc1)C(=O)O; Phe(4-Cl) = N[C@@H](Cc1ccc(Cl)cc1)C(=O)O; Phe(4-Me) = Cc1ccc(C[C@H](N)C(=O)O)cc1; Cha = N[C@@H](CC1CCCCC1)C(=O)O
# value in nM; strip the unit string

Solved cases below.
1. Ac-Q[Cha]DL[Phe(4-Cl)]-OH (SMILES CC(=O)N[C@@H](CCC(N)=O)C(=O)N[C@@H](CC1CCCCC1)C(=O)N[C@@H](CC(=O)O)C(=O)N[C@@H](CC(C)C)C(=O)N[C@@H](Cc1ccc(Cl)cc1)C(=O)O, X stands for Cha; the substituted phenylalanine is written F; also called Ac-Q Cha DL pClF) [P12, Ac-Gln-Cha-Asp-Leu-pClPhe-OH]; 160
2. Ac-Q[Cha]DL[Phe(4-Br)]-OH (SMILES CC(=O)N[C@@H](CCC(N)=O)C(=O)N[C@@H](CC1CCCCC1)C(=O)N[C@@H](CC(=O)O)C(=O)N[C@@H](CC(C)C)C(=O)N[C@@H](Cc1ccc(Br)cc1)C(=O)O, X stands for Cha; the substituted phenylalanine is written F; also called Ac-Q Cha DL pBrF) [P13, Ac-Gln-Cha-Asp-Leu-pBrPhe-OH]; 100
3. Ac-Q[Cha]DL[Phe(3,4-Cl2)]-OH (SMILES CC(=O)N[C@@H](CCC(N)=O)C(=O)N[C@@H](CC1CCCCC1)C(=O)N[C@@H](CC(=O)O)C(=O)N[C@@H](CC(C)C)C(=O)N[C@@H](Cc1ccc(Cl)c(Cl)c1)C(=O)O, X stands for Cha; the substituted phenylalanine is written F; also called Ac-Q Cha DL diClF; Bu29) [P14, Ac-Gln-Cha-Asp-Leu-(3,4-di-Cl)Phe-OH]; 72

Lab note: next binder to report on.
Req: Return reported IC50. Input binder: Ac-Q[Cha]DL[Phe(4-Me)]-OH (SMILES CC(=O)N[C@@H](CCC(N)=O)C(=O)N[C@@H](CC1CCCCC1)C(=O)N[C@@H](CC(=O)O)C(=O)N[C@@H](CC(C)C)C(=O)N[C@@H](Cc1ccc(C)cc1)C(=O)O, X stands for Cha; the substituted phenylalanine is written F; also called Ac-Q Cha DL pMeF) [P11, Ac-Gln-Cha-Asp-Leu-pMePhe-OH]
Resp: 260

Source: patent US20140287989A1
